# targetOrSystem: Human TLR4/MD-2 complex (human), O00206
# Sequence (O00206 24-631, chain 1 of 2): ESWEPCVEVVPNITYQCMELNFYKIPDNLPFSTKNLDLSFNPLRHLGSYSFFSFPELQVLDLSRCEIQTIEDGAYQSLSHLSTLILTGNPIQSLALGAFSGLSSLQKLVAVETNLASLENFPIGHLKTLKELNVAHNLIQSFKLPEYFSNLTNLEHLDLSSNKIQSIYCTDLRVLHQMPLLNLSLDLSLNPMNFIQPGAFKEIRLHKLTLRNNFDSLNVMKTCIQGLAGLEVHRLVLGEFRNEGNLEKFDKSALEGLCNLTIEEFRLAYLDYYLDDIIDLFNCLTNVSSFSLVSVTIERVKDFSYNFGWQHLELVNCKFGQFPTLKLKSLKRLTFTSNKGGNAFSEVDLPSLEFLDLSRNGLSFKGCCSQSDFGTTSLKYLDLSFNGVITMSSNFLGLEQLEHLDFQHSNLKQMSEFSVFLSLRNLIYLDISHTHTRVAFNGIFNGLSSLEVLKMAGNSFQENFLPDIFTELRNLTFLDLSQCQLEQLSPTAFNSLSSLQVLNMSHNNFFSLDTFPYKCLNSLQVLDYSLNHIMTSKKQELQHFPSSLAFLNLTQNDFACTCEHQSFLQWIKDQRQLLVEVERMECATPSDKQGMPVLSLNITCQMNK
# Sequence (chain, as listed by the source, chain 2 of 2): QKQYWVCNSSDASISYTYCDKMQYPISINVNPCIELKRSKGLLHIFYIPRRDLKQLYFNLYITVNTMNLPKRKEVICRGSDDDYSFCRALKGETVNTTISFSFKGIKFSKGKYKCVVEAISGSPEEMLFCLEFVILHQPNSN
# testDetails: SPR; Biacore T200; TLR4/MD-2 amine-coupled on CM5 (1100 RU); GST-A-box, GST-B-box (150-5000 nM), A-box or GST injected at 30 μL/min for 60 s, 25 °C, dissociation 1 min; HBS-EP pH 7.4; GST-A-box: association and dissociation fitted separately to a 1:1 model; GST-B-box: steady-state affinity model; apparent KD
readoutLabel: Kd (nM)
Answers are plain numbers, in nM.

Inquiry: Please give the measured Kd for this binder: Recombinant GST-A-box (domain or fragment, modifications not checked) PRGKMSSYAFFVQTCREEHKKKHPDASVNFSEFSKKCSERWKTMSAKEKGKFEDMAKADKARYEREMKTYI
Reply text: 1210

Just for reference, paper PMC6085627 is where these values come from.
